Where these numbers come from: paper PMC8321398

# Method description: In vivo efficacy, mouse model of juvenile (21-day old) S. mansoni infection
# Assay context: female, CD1, plasma; mouse, Juvenile infection, oral 12.5 mg/kg, formulation corn oil; read-out: Plasma conc @24 h (efficacy experiment)
Quantity kind: concentration at 24 h (ng/mL)
Kindly answer with a numeric value in ng/mL, unit omitted.

# compound Fc1ccc(-c2cn3c(-c4ccc5[nH]ncc5c4F)c(C(F)(F)F)nc3cn2)cc1C(F)(F)C(F)(F)F [LSHTM-3645] ; its concentration at 24 h = 984

# compound Fc1ccc(-c2cn3c(-c4ccc5[nH]ncc5c4F)c(C(F)(F)F)nc3cn2)cc1C(F)(F)F [LSHTM-3642] ; its concentration at 24 h = 1320

# compound Fc1c(-c2c(C(F)(F)F)nc3cnc(-c4cccc(C(F)(F)C(F)(F)F)c4)cn23)ccc2[nH]ncc12 [LSHTM-3608] ; its concentration at 24 h = 879
